Source listed as paper PMC11191095.

tested on: C. glabrata NCPF 8018; experiment: microbe, parasite or virus in culture; format: cell-based; settings: C. glabrata NCPF 8018; shown in µM

# COMPOUND, Modal MIC90
data = [
    ("CC[C@H](C)[C@H](NC(=O)[C@H](C)NC(=O)[C@H](CCCCN)NC(=O)[C@@H]1CCCN1C(=O)[C@@H](NC(=O)[C@H](CC(C)C)NC(=O)[C@H](CO)NC(=O)[C@H](Cc1ccccc1)NC(=O)[C@H](CC(C)C)NC(=O)[C@@H](N)Cc1ccccc1)[C@@H](C)CC)C(=O)NCC(=O)NCC(=O)N[C@@H](CC(C)C)C(=O)N[C@H](C(=O)N[C@@H](CO)C(=O)N[C@@H](C)C(=O)N[C@@H](Cc1ccccc1)C(=O)N[C@@H](CCCCN)C(N)=O)[C@@H](C)CC [AamAP-S1a]", "> 64.8 µM"),
]
